Molecular target: NUAK2 (h) (Homo sapiens)
Construct: This assay was done radiometrically using full-length, recombinant enzyme
Sequence (Q9H093 1-628): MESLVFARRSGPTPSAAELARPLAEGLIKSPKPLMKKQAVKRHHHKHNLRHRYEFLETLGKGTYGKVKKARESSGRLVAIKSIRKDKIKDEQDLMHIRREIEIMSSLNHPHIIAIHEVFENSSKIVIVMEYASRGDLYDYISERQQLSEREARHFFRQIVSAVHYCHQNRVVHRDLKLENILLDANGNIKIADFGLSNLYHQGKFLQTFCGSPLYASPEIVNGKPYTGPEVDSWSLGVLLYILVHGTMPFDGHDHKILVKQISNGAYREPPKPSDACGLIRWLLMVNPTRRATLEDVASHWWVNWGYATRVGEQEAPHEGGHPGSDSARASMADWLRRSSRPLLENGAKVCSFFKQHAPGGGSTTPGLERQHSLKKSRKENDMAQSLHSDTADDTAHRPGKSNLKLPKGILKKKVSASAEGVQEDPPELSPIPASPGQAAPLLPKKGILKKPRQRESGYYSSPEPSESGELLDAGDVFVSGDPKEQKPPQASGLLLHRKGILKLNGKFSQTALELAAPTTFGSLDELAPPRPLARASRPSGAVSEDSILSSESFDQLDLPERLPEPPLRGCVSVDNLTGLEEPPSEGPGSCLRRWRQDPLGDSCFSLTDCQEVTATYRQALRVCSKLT
Assay: NUAK2 enzymatic assay (radiometric, Eurofins)
Conditions: radiometric, full-length recombinant enzyme
MEASUREMENT_LABEL: IC50

Qu. // lookup IC50 for CN(C)C1CCN(c2ccc(Nc3ncc(Cl)c(Nc4ccsc4C(N)=O)n3)c(OC(F)F)c2)CC1 [Compound I-47]
Ans. 11 to 100 nM

Qu. Okay, and NC(=O)c1sccc1Nc1nc(Nc2ccc(N3CCN4CCOC[C@@H]4C3)cc2OC(F)F)ncc1Cl [Compound I-49] ?
Ans. 11 to 100 nM

Qu. Thanks! And CN1CCN(c2cc(OC(F)F)c(Nc3ncc(Cl)c(Nc4ccsc4C(N)=O)n3)cc2F)CC1 [Compound I-6] ?
Ans. 11 to 100 nM

Qu. Please answer likewise for C[C@@H]1CN(C2CCN(c3ccc(Nc4ncc(Cl)c(Nc5ccsc5C(N)=O)n4)c(OC(F)F)c3)CC2)C[C@H](C)N1C [Compound I-64]
Ans. 0.1 to 10 nM

Qu. Again, but for NC(=O)c1sccc1Nc1nc(Nc2ccc(N3CCC(N4CCCC4)CC3)cc2OC(F)F)ncc1Cl [Compound I-48]
Ans. 0.1 to 10 nM

Qu. Moving on to the next compound: CN(C)[C@@H]1CCN(c2ccc(Nc3ncc(Cl)c(Nc4ccsc4C(N)=O)n3)c(OC(F)F)c2)C1 [Compound I-55]
Ans. 11 to 100 nM

Qu. Moving on to CN1CCN(C2CCN(c3ccc(Nc4ncc(Cl)c(Nc5cscc5C(N)=O)n4)c(OC(F)F)c3)CC2)CC1 [Compound I-51]
Ans. 0.1 to 10 nM

Qu. What do you get for CN1CCN(C2CCN(c3ccc(Nc4ncc(Cl)c(Nc5ccsc5C(N)=O)n4)c(OC(F)F)c3F)CC2)CC1 [Compound I-40] ?
Ans. 101 to 1000 nM

Qu. Thanks! And CN1CCN(C2CCN(c3ccc(Nc4ncc(C#N)c(Nc5ccsc5C(N)=O)n4)c(OC(F)F)c3)CC2)CC1 [Compound I-80] ?
Ans. 11 to 100 nM
